# systemTested: T1, IZN17 (peptide 11, AcIKKEIEAIKKEQEAIKKKIEAIEKLLQLTVWGIKQLQARIL-NH2) (N-terminal acetyl (Ac); C-terminal amide (NH2))
# T1 construct: also called peptide IZN17; 1ZN17
# T1 chain: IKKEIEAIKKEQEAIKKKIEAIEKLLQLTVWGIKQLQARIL
# experimentalDetails: fluorescence polarization competition, displacement of peptide 12 from IZN17; value inexact because the peptide aggregates
pKd: −log10 of the molar value.
reportedMetric: pKd

{"binder": "Ac-MTWMEWDREINNYT-NH2 (Unconstrained parent peptide; also called unconstrained C-peptide) [Peptide 1 (AcMTWMEWDREINNYT-NH2), 14-residue C-peptide derived from gp41]", "recordedMeasurement": 4.43}

These data points were gathered from patent US20110046043A1.
